The measurements presented in this section are drawn from PubChem BioAssay (Tox21).

Assay: qHTS RealTime-Glo MT Cell Viability Assay in HEK293 cells - 16 hour (AID 1224872); further: nearly all actives have a fitted effect of over 50% in size
Settings: RealTime-Glo luminescence; series mostly up to 76.8 µM
Records with an inconclusive call do not appear. The source made the active and inactive calls. The call rests on the fitted dose curve; in most records, active means well fitted cell-killing curve with a large enough effect in the repeat runs; inconclusive means weak or mixed curves, or effect the other way; inactive means flat fitted curve, though single readings scatter.
Pick one and only one: active, inactive

Solved entries (count: 5):
[[record]]
compound = "Cc1onc(-c2ccccc2Cl)c1C(=O)N[C@@H]1C(=O)N2[C@@H]1SC(C)(C)[C@@H]2C(=O)O"
labelvalue = "inactive"

[[record]]
compound = "CC(C)OC(=O)c1cc2c(OCC(O)CNC(C)(C)C)cccc2[nH]1 (stereo unspecified)"
labelvalue = "active"

[[record]]
compound = "CCCCC(CC)COP(=O)(O)OCC(CC)CCCC (stereo unspecified)"
labelvalue = "inactive"

[[record]]
compound = "CCC(CN)=C(c1ccccc1)c1ccccc1"
labelvalue = "inactive"

[[record]]
compound = "O=[N+]([O-])c1cc(Cl)c(Cl)c(Cl)c1Cl"
labelvalue = "inactive"


Now for another entry.
Dear colleague, could you share the recorded outcome for `Cc1cc(O)c2ccccc2c1O` when you have a moment?
active
